Parameter pEC50: see the listing below.
Tested on: MT4
assay.details: Inhibition of mutant type (Cys181) HIV-1 (IIIB) replication in MT-4 cells
Type: functional
particulars: Homo sapiens, read-out: ED50 (the source's name)
pEC50: −log10 of the molar value.

[
  {
    "smiles.input": "CCOc1ccc(F)c(CCNC(=S)Nc2ccc(Cl)cn2)c1Cl",
    "pEC50": 8.15
  },
  {
    "smiles.input": "CCOc1ccc(OC)c(CCNC(=S)Nc2ccc(Cl)cn2)c1F",
    "pEC50": 8.05
  },
  {
    "smiles.input": "Fc1ccoc1CC/N=C(\\S)Nc1ccc(Cl)cn1",
    "pEC50": 7.10
  },
  {
    "smiles.input": "CCOc1ccc(F)c(CCNC(=S)Nc2ccc(C#N)cn2)c1Cl",
    "pEC50": 7.52
  },
  {
    "smiles.input": "N#Cc1ccc(F)c(CC/N=C(\\S)Nc2ccc(Cl)cn2)c1F",
    "pEC50": 7.30
  },
  {
    "smiles.input": "N#Cc1ccoc1CCNC(=S)Nc1ccc(Cl)cn1",
    "pEC50": 6.70
  }
]

====

Tested on: MT4
assay.details: Inhibition of mutant type (Cys181) HIV-1 (IIIB) replication in MT-4 cells
Assay type: functional
particulars: Homo sapiens, read-out: ED50 (the source's name)
pEC50: −log10 of the molar value.
measurement.label: pEC50

[
  {
    "smiles.input": "CCOc1ccc(F)c(F)c1CCNC(=S)Nc1ccc(Br)cn1",
    "relation.symbol": "=",
    "measured.number": 6.70
  },
  {
    "smiles.input": "CCc1cc(NCc2nc3c(Cl)ccc(Cl)c3o2)c(O)nc1C",
    "relation.symbol": "<",
    "measured.number": 4.96
  },
  {
    "smiles.input": "CC(=O)NCc1ccc(F)c(CCNC(=S)Nc2ccc(Br)cn2)c1F",
    "relation.symbol": "<",
    "measured.number": 5.70
  },
  {
    "smiles.input": "S=C(NCCn1nc2ccccc2n1)Nc1ccc(Br)cn1",
    "relation.symbol": "=",
    "measured.number": 6.00
  },
  {
    "smiles.input": "CCOc1ccc(F)c(CCNC(=S)Nc2ccc(Br)cn2)c1Cl",
    "relation.symbol": "=",
    "measured.number": 7.52
  },
  {
    "smiles.input": "CN(C)c1ccc(F)c(CCNC(=S)Nc2ccc(Cl)cn2)c1F",
    "relation.symbol": "=",
    "measured.number": 6.15
  },
  {
    "smiles.input": "Cn1cccc1CC/N=C(\\S)Nc1ccc(C#N)cn1",
    "relation.symbol": "<",
    "measured.number": 5.70
  },
  {
    "smiles.input": "COc1ccc(F)c(CCNC(=S)Nc2ccc(Br)cn2)c1F",
    "relation.symbol": "=",
    "measured.number": 7.30
  },
  {
    "smiles.input": "CN(C)c1ccc(F)c(CCNC(=S)Nc2ccc(Br)cn2)c1F",
    "relation.symbol": "=",
    "measured.number": 6.00
  },
  {
    "smiles.input": "Fc1cc(F)c(CCNC(=S)Nc2ccc(Cl)cn2)c(F)c1",
    "relation.symbol": "=",
    "measured.number": 5.82
  },
  {
    "smiles.input": "CCOc1cccc(F)c1CCNC(=S)Nc1ccc(Br)cn1",
    "relation.symbol": "=",
    "measured.number": 8.15
  }
]

====

Tested on: MT4
assay.details: Inhibition of mutant type (Cys181) HIV-1 (IIIB) replication in MT-4 cells
Format: functional
particulars: Homo sapiens, read-out: ED50 (the source's name)
pEC50: −log10 of the molar value.
Parameter pEC50: see the listing below.

[
  {
    "compound": "COCc1ccc(F)c(CCNC(=S)Nc2ccc(Br)cn2)c1F",
    "relation.symbol": "=",
    "pEC50": 6.52
  },
  {
    "compound": "O=C1c2c(Cl)ccc(Cl)c2C(=O)N1CCNC(=S)Nc1ccc(Cl)cn1",
    "relation.symbol": "<",
    "pEC50": 5.70
  },
  {
    "compound": "CCOc1ccc(F)c(CC/N=C(\\S)Nc2nc(C(F)(F)F)cs2)c1Cl",
    "relation.symbol": "<",
    "pEC50": 5.70
  },
  {
    "compound": "CCOc1c(Cl)cc(F)c(CCNC(=S)Nc2ccc(Br)cn2)c1Cl",
    "relation.symbol": "=",
    "pEC50": 7.70
  },
  {
    "compound": "CCOc1ccc(F)c(CCNC(=S)Nc2ccc(I)cn2)c1Cl",
    "relation.symbol": "=",
    "pEC50": 6.70
  },
  {
    "compound": "CN(C)c1cc(F)c(CCNC(=S)Nc2ccc(Cl)cn2)c(F)c1",
    "relation.symbol": "=",
    "pEC50": 6.05
  },
  {
    "compound": "COc1ccc2[nH]cc(CC/N=C(\\S)Nc3ccc(Br)cn3)c2c1",
    "relation.symbol": "=",
    "pEC50": 6.05
  },
  {
    "compound": "Cn1cccc1CCNC(=S)Nc1ccc(Cl)cn1",
    "relation.symbol": "<",
    "pEC50": 5.70
  },
  {
    "compound": "S=C(NCCc1c[nH]c2ccccc12)Nc1ccc(Br)cn1",
    "relation.symbol": "=",
    "pEC50": 6.52
  },
  {
    "compound": "COc1ccc(F)c(CCNC(=S)Nc2ccc(Br)cn2)c1OC",
    "relation.symbol": "=",
    "pEC50": 6.70
  },
  {
    "compound": "Cc1cc2nn(CCNC(=S)Nc3ccc(Br)cn3)nc2cc1C",
    "relation.symbol": "<",
    "pEC50": 5.70
  },
  {
    "compound": "Cc1ccnc2c1NC(=O)c1cccnc1N2C1CC1 [NEVIRAPINE]",
    "relation.symbol": "=",
    "pEC50": 4.66
  },
  {
    "compound": "COc1ccc(F)c(CCNC(=S)Nc2ccc(C#N)cn2)c1C#N",
    "relation.symbol": "=",
    "pEC50": 7.52
  },
  {
    "compound": "COc1ccc(F)c(CC/N=C(\\S)Nc2ccc(Cl)cn2)c1C#N",
    "relation.symbol": "=",
    "pEC50": 7.00
  },
  {
    "compound": "O=C1c2ccccc2C(=O)N1CCNC(=S)Nc1ccc(Cl)cn1",
    "relation.symbol": "=",
    "pEC50": 7.40
  },
  {
    "compound": "CCOc1ccc(OCC)c(CCNC(=S)Nc2ccc(Br)cn2)c1",
    "relation.symbol": "=",
    "pEC50": 6.10
  },
  {
    "compound": "CN(C)c1ccc(CC/N=C(\\S)Nc2ccc(Br)cn2)c(F)c1C#N",
    "relation.symbol": "=",
    "pEC50": 7.70
  },
  {
    "compound": "CCOc1ccc(Cl)c(CC/N=C(\\S)Nc2ccc(Br)cn2)c1F",
    "relation.symbol": "=",
    "pEC50": 7.30
  },
  {
    "compound": "COc1ccc(F)c(CC/N=C(\\S)Nc2ccc(Br)cn2)c1C#N",
    "relation.symbol": "=",
    "pEC50": 7.40
  },
  {
    "compound": "COc1ccc(OC)c(CCNC(=S)Nc2ccc(Cl)cn2)c1F",
    "relation.symbol": "=",
    "pEC50": 8.52
  },
  {
    "compound": "Fc1cccc(F)c1CCNC(=S)Nc1ccc(Br)cn1",
    "relation.symbol": "=",
    "pEC50": 6.82
  },
  {
    "compound": "CCOc1ccc(F)c(CCNC(=S)Nc2ccc(Br)cn2)c1F",
    "relation.symbol": "=",
    "pEC50": 8.22
  },
  {
    "compound": "COc1ccc(F)c(F)c1CCNC(=S)Nc1ccc(Br)cn1",
    "relation.symbol": "=",
    "pEC50": 7.40
  },
  {
    "compound": "CCOc1ccc(F)c(CC/N=C(\\S)Nc2ccc(Br)cn2)c1C#N",
    "relation.symbol": "=",
    "pEC50": 8.30
  },
  {
    "compound": "CNC(=O)c1ccc(F)c(CC/N=C(\\S)Nc2ccc(Br)cn2)c1F",
    "relation.symbol": "=",
    "pEC50": 6.52
  }
]

====

assayed.system: UniProt:Q72547
assay.details: Tested for the inhibition of wild type HIV-1 (IIIB) RT

[
  {
    "smiles.input": "COc1ccc(F)c(CCNC(=S)Nc2ccc(Br)cn2)c1F",
    "unit.descriptor": "nM",
    "IC50": 6
  },
  {
    "smiles.input": "CCOc1ccc(F)c(CCNC(=S)Nc2ccc(Br)cn2)c1Cl",
    "unit.descriptor": "nM",
    "IC50": 12
  },
  {
    "smiles.input": "CN(C)c1ccc(F)c(CCNC(=S)Nc2ccc(Cl)cn2)c1F",
    "unit.descriptor": "nM",
    "IC50": 8
  }
]
